# tested.system: Voltage-dependent L-type calcium channel subunit alpha-1C (Cavia porcellus, UniProt O35505)
# Sequence (O35505 whole entry): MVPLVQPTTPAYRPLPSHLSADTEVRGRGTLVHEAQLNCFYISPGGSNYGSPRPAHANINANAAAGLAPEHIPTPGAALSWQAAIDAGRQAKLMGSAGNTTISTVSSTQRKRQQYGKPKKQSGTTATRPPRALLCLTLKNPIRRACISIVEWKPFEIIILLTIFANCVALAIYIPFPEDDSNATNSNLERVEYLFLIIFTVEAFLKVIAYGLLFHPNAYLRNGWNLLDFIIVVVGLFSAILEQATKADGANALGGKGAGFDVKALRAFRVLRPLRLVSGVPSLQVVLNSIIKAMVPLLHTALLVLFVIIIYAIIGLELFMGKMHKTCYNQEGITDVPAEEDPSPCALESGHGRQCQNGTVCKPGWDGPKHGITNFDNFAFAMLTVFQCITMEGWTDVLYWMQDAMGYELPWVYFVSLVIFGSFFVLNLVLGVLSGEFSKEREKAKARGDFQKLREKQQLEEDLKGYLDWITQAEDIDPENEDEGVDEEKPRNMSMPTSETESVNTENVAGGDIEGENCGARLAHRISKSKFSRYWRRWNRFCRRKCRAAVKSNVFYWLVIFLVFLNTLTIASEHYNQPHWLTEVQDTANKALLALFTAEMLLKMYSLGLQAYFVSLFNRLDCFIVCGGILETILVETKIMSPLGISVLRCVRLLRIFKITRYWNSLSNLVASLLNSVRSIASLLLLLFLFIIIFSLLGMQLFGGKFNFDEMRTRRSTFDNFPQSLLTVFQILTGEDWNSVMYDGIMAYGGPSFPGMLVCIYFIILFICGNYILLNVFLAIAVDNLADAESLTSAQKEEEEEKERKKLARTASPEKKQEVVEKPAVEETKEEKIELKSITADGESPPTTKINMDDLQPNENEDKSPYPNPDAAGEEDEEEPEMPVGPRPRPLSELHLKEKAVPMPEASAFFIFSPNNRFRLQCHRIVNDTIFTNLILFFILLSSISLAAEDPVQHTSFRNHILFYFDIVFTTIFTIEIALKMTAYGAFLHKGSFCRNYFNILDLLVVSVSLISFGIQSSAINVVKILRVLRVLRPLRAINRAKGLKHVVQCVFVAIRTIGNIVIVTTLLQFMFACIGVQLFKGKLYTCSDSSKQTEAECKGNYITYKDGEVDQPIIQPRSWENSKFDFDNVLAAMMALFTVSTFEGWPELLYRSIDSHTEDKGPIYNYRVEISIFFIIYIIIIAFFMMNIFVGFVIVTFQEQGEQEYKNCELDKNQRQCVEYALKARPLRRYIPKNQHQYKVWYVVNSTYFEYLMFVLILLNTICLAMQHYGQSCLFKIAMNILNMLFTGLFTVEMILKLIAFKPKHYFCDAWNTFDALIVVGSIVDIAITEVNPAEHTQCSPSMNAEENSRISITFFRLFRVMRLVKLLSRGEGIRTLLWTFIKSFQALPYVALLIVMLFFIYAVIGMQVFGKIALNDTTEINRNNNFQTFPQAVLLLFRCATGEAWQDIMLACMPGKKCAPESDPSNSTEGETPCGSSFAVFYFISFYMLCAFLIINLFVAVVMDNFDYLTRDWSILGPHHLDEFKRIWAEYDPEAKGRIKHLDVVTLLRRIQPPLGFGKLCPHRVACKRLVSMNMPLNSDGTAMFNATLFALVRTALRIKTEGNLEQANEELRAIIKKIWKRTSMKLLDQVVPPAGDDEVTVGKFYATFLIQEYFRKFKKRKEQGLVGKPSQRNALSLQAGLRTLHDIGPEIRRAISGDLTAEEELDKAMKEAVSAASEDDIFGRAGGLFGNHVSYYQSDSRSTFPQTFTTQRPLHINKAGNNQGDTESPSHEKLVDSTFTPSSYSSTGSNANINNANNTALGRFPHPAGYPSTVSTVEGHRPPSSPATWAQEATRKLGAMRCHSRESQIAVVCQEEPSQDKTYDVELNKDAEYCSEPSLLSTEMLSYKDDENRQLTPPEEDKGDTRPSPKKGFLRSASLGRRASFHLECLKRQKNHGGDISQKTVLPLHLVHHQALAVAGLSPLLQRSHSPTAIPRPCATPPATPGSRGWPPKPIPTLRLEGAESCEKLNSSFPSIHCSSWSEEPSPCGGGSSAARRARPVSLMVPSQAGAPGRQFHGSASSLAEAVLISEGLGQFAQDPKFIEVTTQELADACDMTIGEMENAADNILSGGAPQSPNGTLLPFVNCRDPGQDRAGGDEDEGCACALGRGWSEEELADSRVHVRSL
# measurement.protocol: Inhibition of L-type calcium channel in Cavia porcellus (guinea pig) ileal SMC assessed as inhibition of 80 mM KCl-induced current
quantity.name: pIC50
To interpret pIC50, take it as minus log10 of a concentration measured in moles per litre.

Observe how each entry below is paired with its result.
>>> df
                                   compound  quantitative_readout
0  CC1=C(C(=O)OCC(C)C)C(c2[nH]c(C)nc2Cl)C(C(=O)OCC(C)C)=C(C)N1                  7.02
1  COC(=O)C1=C(C)NC(C)=C(C(=O)OCCc2ccccc2)C1c1[nH]c(C)nc1Cl (centres undefined)                  7.10
2  CC1=C(C(=O)OCCc2ccccc2)C(c2nc(C)[nH]c2Cl)C(C(=O)OCCc2ccccc2)=C(C)N1                  9.74

Next compound, pIC50 to be filled in.
Task item: What value of pIC50 has been reported for the following compound? CCCOC(=O)C1=C(C)NC(C)=C(C(=O)OC)C1c1[nH]c(C)nc1Cl (centres undefined)
Reply: 6.36

###

# tested.system: Voltage-dependent L-type calcium channel subunit alpha-1C (Cavia porcellus)
# measurement.protocol: Inhibition of L-type calcium channel in Cavia porcellus (guinea pig) ileal SMC assessed as inhibition of 80 mM KCl-induced current
quantity.name: pIC50
To interpret pIC50, take it as minus log10 of a concentration measured in moles per litre.

Observe how each entry below is paired with its result.
>>> print(df.to_string())
                                   compound  quantity_name  quantitative_readout
0  COC(=O)C1=C(C)NC(C)=C(C(=O)OC)C1c1[nH]c(C)nc1Cl          pIC50                  5.92
1  CCOC(=O)C1=C(C)NC(C)=C(C(=O)OCc2ccccc2)C1c1[nH]c(C)nc1Cl (centres undefined)          pIC50                  7.04
2  CCOC(=O)C1=C(C)NC(C)=C(C(=O)OC)C1c1[nH]c(C)nc1Cl (centres undefined)          pIC50                  6.18
3  CC1=C(C(=O)OCCCc2ccccc2)C(c2nc(C)[nH]c2Cl)C(C(=O)OCCCc2ccccc2)=C(C)N1          pIC50                  8.76
4  CCOC(=O)C1=C(C)NC(C)=C(C(=O)OCC2CCCCC2)C1c1[nH]c(C)nc1Cl (centres undefined)          pIC50                  6.29

Task item: What value of pIC50 has been reported for the following compound? CC1=C(C(=O)OC(C)C)C(c2[nH]c(C)nc2Cl)C(C(=O)OC(C)C)=C(C)N1
Reply: 7.42

Task item: What value of pIC50 has been reported for the following compound? CCOC(=O)C1=C(C)NC(C)=C(C(=O)OCCc2ccccc2)C1c1[nH]c(C)nc1Cl (centres undefined)
Reply: 7.15

Task item: What value of pIC50 has been reported for the following compound? CCOC(=O)C1=C(C)NC(C)=C(C(=O)OCC)C1c1[nH]c(C)nc1Cl
Reply: 6.36

Task item: What value of pIC50 has been reported for the following compound? CCOC(=O)C1=C(C)NC(C)=C(C(=O)OC(C)(C)C)C1c1[nH]c(C)nc1Cl (centres undefined)
Reply: 5.78

Task item: What value of pIC50 has been reported for the following compound? CC1=C(C(=O)OC(C)(C)C)C(c2[nH]c(C)nc2Cl)C(C(=O)OC(C)(C)C)=C(C)N1
Reply: 5.39

Task item: What value of pIC50 has been reported for the following compound? CC1=C(C(=O)OCC2CCCCC2)C(c2[nH]c(C)nc2Cl)C(C(=O)OCC2CCCCC2)=C(C)N1
Reply: 6.20

Task item: What value of pIC50 has been reported for the following compound? COC(=O)C1=C(C)NC(C)=C(C(=O)OC(C)(C)C)C1c1[nH]c(C)nc1Cl (centres undefined)
Reply: 5.73

Task item: What value of pIC50 has been reported for the following compound? CC1=C(C(=O)OC2CCCCC2)C(c2[nH]c(C)nc2Cl)C(C(=O)OC2CCCCC2)=C(C)N1
Reply: 6.02

Task item: What value of pIC50 has been reported for the following compound? COC(=O)C1=C(C)NC(C)=C(C(=O)OCC2CCCCC2)C1c1[nH]c(C)nc1Cl (centres undefined)
Reply: 6.45

Task item: What value of pIC50 has been reported for the following compound? CC1=C(C(=O)OC2CCCC2)C(c2[nH]c(C)nc2Cl)C(C(=O)OC2CCCC2)=C(C)N1
Reply: 7.01

Task item: What value of pIC50 has been reported for the following compound? COC(=O)C1=C(C)NC(C)=C(C(=O)OCc2ccccc2)C1c1[nH]c(C)nc1Cl (centres undefined)
Reply: 7.03

Task item: What value of pIC50 has been reported for the following compound? CCCOC(=O)C1=C(C)NC(C)=C(C(=O)OCCC)C1c1[nH]c(C)nc1Cl
Reply: 7.20

Task item: What value of pIC50 has been reported for the following compound? CC1=C(C(=O)OCc2ccccc2)C(c2nc(C)[nH]c2Cl)C(C(=O)OCc2ccccc2)=C(C)N1
Reply: 7.38

Task item: What value of pIC50 has been reported for the following compound? CCCOC(=O)C1=C(C)NC(C)=C(C(=O)OCC)C1c1[nH]c(C)nc1Cl (centres undefined)
Reply: 6.39
